The reported measurements were obtained from paper PMC5786306.

subject-of-test: interaction of AKAP-Lbc/DHPH and RhoA (Homo sapiens)
Construct: His6-AKAP-Lbc/DHPH (aa 1972–2342 of human AKAP-Lbc; NP_006729.4); made in house
Sequence (P61586 whole entry, the tested form may be a part): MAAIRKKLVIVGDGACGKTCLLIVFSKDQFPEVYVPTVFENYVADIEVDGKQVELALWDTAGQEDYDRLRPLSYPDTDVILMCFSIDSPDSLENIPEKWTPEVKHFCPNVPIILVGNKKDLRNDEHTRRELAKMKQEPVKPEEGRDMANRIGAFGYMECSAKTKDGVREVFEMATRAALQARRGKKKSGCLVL
assay-procedure: Homogeneous time-resolved fluorescence (HTRF) assay
Type: binding
measurement-context: read-out: IC50 ± SEM; Table 1; HTRF; '-' = no IC50, inactive (n.d. is used separately in S3 Table)
measure: IC50

[ask] Quick check: IC50 of `COc1ccc(-c2coc3cc4oc(=O)c(C)c(C)c4cc23)cc1` ?
[reply] > 200 µM

----------
# solubility annotations
assay-procedure: Nephelometric solubility
Type: physicochemical
measurement-context: DMEM + 10 % FCS, plasma or biological fluid, kinetic from dmso stock, maximal solubility in DMEM + 10 % FCS, 2 % DMSO final; read-out: Solubility 2 % DMSO
Method: Solubility of Scaff10 derivatives was assessed nephelometrically. Scaff10 derivatives are moderately to poorly soluble in aqueous solutions due to their large number of aromatic rings having lipophilic character. […] Suppl. […] MW = molecular weight. logP = calculated partition coefficient (using […] Solubility was assessed nephelometrically in DMEM + 10 % FCS + Scaff10 derivative with either 0.3 or 2 % DMSO […] for each of Scaff10 derivatives. n.d. = not determined. n.i. = not indicated. […]
The response must be a number in µM with no trailing unit.

| compound | solubility, µM |
| --- | --- |
| Cc1nc(-c2ccc(F)cc2)ccc1-c1coc2cc3oc(=O)c(C)c(C)c3cc12 [Scaff10-5] | 65 |
| COc1ccc(C(=O)COc2ccc3c(C)c(CCC(=O)O)c(=O)oc3c2)cc1 [Scaff10-6] | 100 |
| Cc1nc(-c2ccc(F)cc2)ccc1C(=O)COc1ccc2c(C)c(C)c(=O)oc2c1 [Scaff10-4] | 40 |
| Cc1c(CCC(=O)O)c(=O)oc2cc(OCC(=O)c3ccc(-c4ccccc4)cc3)ccc12 [Scaff10-40] | 15 |
| COc1cccc(-c2ccc(C(=O)COc3ccc4c(C)c(CCC(=O)O)c(=O)oc4c3)cc2)c1 [Scaff10-63] | 30 |
| COc1ccc2cc(-c3coc4cc5oc(=O)c(CCC(=O)O)c(C)c5cc34)ccc2c1 [Scaff10-44] | 15 |

Shift focus to the following entry.
[ask] # query: solubility of entry Cc1c(CCC(=O)O)c(=O)oc2cc3occ(-c4ccc(-c5ccccc5)cc4)c3cc12 [Scaff10-41]
[reply] 50
